Tested on: 171881-019-R-J1-PDC tumor spheroids, viability
Assay: Anticancer human tumor 171881-019-R-J1-PDC patient-derived invasive breast carcinoma cell line growth inhibition [GQUAD]
Conditions: second compound 0.316 µM; first compound 0.316 µM; hits give low values; spheroids with HUVEC and MSC
Threshold 60%. viability, T/C below it: true (1). viability, T/C at it or above: false (0).

Q) Regarding C=CC(=O)N1CCN(c2nc(=O)n(-c3c(C)ccnc3C(C)C)c3nc(-c4c(O)cccc4F)c(F)cc23)C(C)C1 (stereo not given) + Cc1cnc(CNC(=O)c2c(=O)c3ccc(N4CCCN(C)CC4)nc3n3c2sc2ccccc23)cn1 , kindly confirm whether its viability, T/C is beneath 60%.
A) false (0)

Q) Lab log: compare recorded viability, T/C with 60%; is it strictly lower for CC1COCCN1c1cc(-c2ccnn2C)c2ccnc(-c3ccn[nH]3)c2n1 (stereo not given) + Cc1cnc(CNC(=O)c2c(=O)c3ccc(N4CCCN(C)CC4)nc3n3c2sc2ccccc23)cn1 ?
A) true (1)

Q) Item COc1ccc([C@@H](O)c2cc(-c3ncnc4cc(N5CCOCC5)ccc34)c(F)cc2Cl)nn1 + Cc1[nH]c2ccc(F)cc2c1-c1nc2c3cccnc3c3ncccc3c2[nH]1 : viability, T/C beneath 60%, strictly?
A) true (1)

Q) Bench note: check whether O=C(c1cc(Cc2n[nH]c(=O)c3ccccc23)ccc1F)N1CCN(C(=O)C2CC2)CC1 + CN(C)c1ccc(Nc2c3ccc(NC(=O)CCN4CCCC4)cc3nc3cc(NC(=O)CCN4CCCC4)ccc23)cc1 shows viability, T/C below 60%
A) false (0)

Q) Lab note: viability, T/C threshold 60%. Does this compound come in strictly under it? CCc1c2c(nc3ccc(O)cc13)-c1cc3c(c(=O)n1C2)COC(=O)[C@]3(O)CC + Cc1[nH]c2ccc(F)cc2c1-c1nc2c3cccnc3c3ncccc3c2[nH]1
A) true (1)

----------
Test system: 171881-019-R-J1-PDC tumor spheroids, viability
Assay: Anticancer human tumor 171881-019-R-J1-PDC cell line growth inhibition [GQUAD];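 note: spheroids exposed to compounds for 7 days; 100% = DMSO vehicle control viability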
Conditions: second compound 0.316 µM; first compound 1 µM; hits give low values; spheroids with HUVEC and MSC
For each entry below, report its viability, T/C value.
Express the result in % but write the number alone.

Q) Report viability, T/C for O=C(c1cc(Cc2n[nH]c(=O)c3ccccc23)ccc1F)N1CCN(C(=O)C2CC2)CC1 + Cc1[nH]c2ccc(F)cc2c1-c1nc2c3cccnc3c3ncccc3c2[nH]1 please.
A) 96.2

Q) Need viability, T/C, item CCCS(=O)(=O)Nc1ccc(F)c(C(=O)c2c[nH]c3ncc(-c4ccc(Cl)cc4)cc23)c1F + Cc1cnc(CNC(=O)c2c(=O)c3ccc(N4CCCN(C)CC4)nc3n3c2sc2ccccc23)cn1
A) 78.7

Q) Request the reported viability, T/C associated with CC(=O)O[C@H]1C(=O)[C@@]2(C)[C@H]([C@H](OC(=O)c3ccccc3)[C@]3(O)C[C@H](OC(=O)[C@H](O)[C@@H](NC(=O)c4ccccc4)c4ccccc4)C(C)=C1C3(C)C)[C@]1(OC(C)=O)CO[C@@H]1C[C@@H]2O + Cc1[nH]c2ccc(F)cc2c1-c1nc2c3cccnc3c3ncccc3c2[nH]1
A) 29.5

Q) What does the record list as viability, T/C for COc1ccc([C@@H](O)c2cc(-c3ncnc4cc(N5CCOCC5)ccc34)c(F)cc2Cl)nn1 + Cc1cnc(CNC(=O)c2c(=O)c3ccc(N4CCCN(C)CC4)nc3n3c2sc2ccccc23)cn1 ?
A) 17

Q) Would you kindly share the measured viability, T/C for Nc1ccn(C2OC(CO)C(O)C2(F)F)c(=O)n1 (stereo unspecified) + Cc1[nH]c2ccc(F)cc2c1-c1nc2c3cccnc3c3ncccc3c2[nH]1 ?
A) 35.2

Q) Item under review: CC(C)n1c(=O)n(C)c2cnc3cc(F)c(-c4ccc(OCCCN5CCCCC5)nc4)cc3c21 + Cc1cnc(CNC(=O)c2c(=O)c3ccc(N4CCCN(C)CC4)nc3n3c2sc2ccccc23)cn1 . Reported viability, T/C?
A) 58.9
